value type: logP
Answers are plain numbers.

Below, each entry is followed by its recorded logP result.
compound=ON=C(c1ccccc1)c1ccccc1 observed_value=3.2
compound=CN(C)C(=S)Nc1ccccc1 observed_value=1.04
compound=CC(=O)OCCC(=O)N(C)c1ccc(S(=O)(=O)N(C)C)cc1 observed_value=0.26
compound=COc1cc(C=NO)ccc1OCCO observed_value=0.82

Here are 7 compounds. What values of logP were reported for them?
1. CCCc1ccc2c(c1)C(=O)c1ccc(NC(C)=O)cc1S2(=O)=O
2. CC(Cl)C(=O)N(CC(=O)Nc1ccccc1)c1ccccc1 (stereo not drawn)
3. CN(C(=O)CCSC#N)c1ccc(S(=O)(=O)N(C)C)cc1
4. CC1=Nc2ccc(I)cc2S(=O)(=O)N1
5. C#CCCC(=O)N(C)c1ccc(S(=O)(=O)N(C)C)cc1
6. CCC(=O)OCCOc1ccc(C=O)cc1OC
7. CC(C)CC(CC(C)C)OC(=O)c1ccc(NC(=O)N(C)C)cc1Cl

[3.51, 3.02, 0.84, 1.61, 0.88, 1.33, 5.15]

Here are 5 compounds. What values of logP were reported for them?
1. CC1CCCN(N=O)C1=O (stereo not drawn)
2. O=C(CN(C(=O)C(Cl)Cl)c1ccccc1)Nc1ccccc1
3. COC(=O)c1ccccc1NC(C)=O
4. COC(=O)c1cc2nc(S(=O)Cc3ncccc3C)[nH]c2cc1C (stereo not drawn)
5. C[N+](C)(C)Cc1cccc(C(F)(F)F)c1.[Br-]

-0.66
2.96
1.65
2.4
-1.35

Here are 8 compounds. What values of logP were reported for them?
1. Cc1nnc(SCc2ccccc2)s1
2. O=C(Nc1ccc(Cl)c(Cl)c1)C(F)(F)F
3. CSc1ccc(C=NN=C(N)NO)cc1
4. C[n+]1c2cc(N)ccc2cc2ccc(N)cc21.[Cl-]
5. O=C(O)c1ccc[nH]1
6. CCCC(=O)Nc1ccc(Cl)c(Cl)c1
7. CNC(=S)NCC(F)(F)C(F)(F)C(F)(F)F
8. CCN(CC)c1c(C)n(C)c(=O)n(-c2ccccc2)c1=O

[2.35, 3.9, 0.32, -1.78, 0.85, 3.77, 1.99, 2.11]

Here are 3 compounds. What values of logP were reported for them?
1. N#CCC(=O)Nc1ccc(Cl)c(Cl)c1
2. NCC(=O)NCC(=O)NCC(=O)O
3. CNC(=N[N+](=O)[O-])NCCSCc1nc[nH]c1C

[2.72, -2.68, 0.18]

Query O=C1NC(c2cccc3ccccc23)Nc2ccccc21 (stereo not drawn) yields logP of 2.96
